// reported %Inh per item
System: LIMK1;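 note: KINOMEscan kinase panel screen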
Conditions: concentration: 1 μM, replicates: in singlicate; n = 1

>  <compound>
Fc1ccc(-c2nn3c(OCC(F)(F)F)cccc3c2-c2ccncc2)cc1 [GW514784]

>  <resultUnit>
%

>  <%Inh>
0

$$$$
>  <compound>
CC(=O)Nc1ccc(COc2ccc(Nc3ccnc4cc(-c5ccccn5)ccc34)cc2)cc1.Cl [GW440148]

>  <resultUnit>
%

>  <%Inh>
0

$$$$
>  <compound>
Cc1cccc(-c2nc(Nc3ccc4ncsc4c3)c3ccccc3n2)n1 [GW867588]

>  <resultUnit>
%

>  <%Inh>
4

$$$$
>  <compound>
COc1cc(Nc2nccc(N3CCC(NC(=O)c4cccc(NC(C)=O)c4)C3)n2)cc(OC)c1OC (stereo not drawn) [GSK1379754]

>  <resultUnit>
%

>  <%Inh>
16

$$$$
>  <compound>
Cc1ccc(NC(=O)c2ccnc(N3CCN(C)CC3)c2)cc1-c1ccc(C(=O)NCC2CC2)cc1 [GW775604]

>  <resultUnit>
%

>  <%Inh>
0

$$$$
>  <compound>
Cc1cccc(-c2nc(-c3ccc(S(C)(=O)=O)cc3)sc2-c2ccncc2)c1

>  <resultUnit>
%

>  <%Inh>
0

$$$$
>  <compound>
Cc1ccc(C(=O)NCC(N)=O)cc1-n1c(C)cc(OCc2ccc(F)cc2F)c(Br)c1=O

>  <resultUnit>
%

>  <%Inh>
16

$$$$
>  <compound>
COc1ccc(Nc2ncc(C#N)c(Nc3ccccc3C(N)=O)n2)cc1N1CCN(C)CC1.Cl [GSK1558669]

>  <resultUnit>
%

>  <%Inh>
85

$$$$
>  <compound>
COc1cc2c(cc1OC[C@@H](O)CO)ncc1c3ccc(C#N)cc3[nH]c21

>  <resultUnit>
%

>  <%Inh>
0

$$$$
>  <compound>
O=c1cc(N2CCOCC2)nc2n(Cc3cccc(C(F)(F)F)c3)ccn12 [GSK2297543]

>  <resultUnit>
%

>  <%Inh>
0

$$$$
>  <compound>
N#Cc1c(N2CCOCC2)sc(-c2ccn[nH]2)c1-c1ccc(Cl)cc1

>  <resultUnit>
%

>  <%Inh>
6

$$$$
>  <compound>
Cl.Oc1cccc(Nc2ccnc3cc(-c4ccncc4)ccc23)c1 [GW494601]

>  <resultUnit>
%

>  <%Inh>
0

$$$$
>  <compound>
Cc1nnc(-c2ccc3occ(-c4ccc(C(C)O)cc4)c3c2)o1 (stereo not drawn)

>  <resultUnit>
%

>  <%Inh>
29

$$$$
>  <compound>
COC(=O)Nc1nc2cc(Oc3ccc(NC(=O)Nc4cc(F)ccc4F)cc3)ccc2[nH]1.Cl [GW701424]

>  <resultUnit>
%

>  <%Inh>
0

$$$$
>  <compound>
N#Cc1ccc(-c2cc(-c3c[nH]nc3-c3ccccn3)ccn2)cc1 [GW693028]

>  <resultUnit>
%

>  <%Inh>
16

$$$$
>  <compound>
CCc1ccnc(/C=C/c2n[nH]c3cc(Sc4ccccc4C(=O)NC)ccc23)c1

>  <resultUnit>
%

>  <%Inh>
0

$$$$
>  <compound>
COCCNC(=O)c1ccc(-c2cc(C(=O)NC3CC3)cc(F)c2C)cc1 [GW868318]

>  <resultUnit>
%

>  <%Inh>
16

$$$$
>  <compound>
CCc1nc(-c2cccc(C)c2)c(-c2ccnc(NCc3ccccc3)c2)s1

>  <resultUnit>
%

>  <%Inh>
0

$$$$
